B1: C20orf112 (parent)
chain: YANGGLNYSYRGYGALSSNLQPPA

Variants of: B1
methodNotes: protein stability index of a GFP-peptide fusion (GPS, HEK-293T) (PSI 1-6); higher = more stable;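 further: lentivirally expressed fusions sorted by FACS into six bins by GFP to DsRed ratio, PSI derived from sequencing read proportions per bin multiplied by bin number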
experimentalParameters: c terminus: a fixed tail appended
measure: protein stability index
Just the number, please, no unit after it.

# mutation, measure, resultValue
records = [
    ("S9D", "protein stability index", 1.97),
    ("Y8R", "protein stability index", 2.04),
    ("L6A", "protein stability index", 2.03),
    ("N19R", "protein stability index", 1.99),
    ("L6E", "protein stability index", 1.97),
]

Exercise: // query protein stability index value for entry G5F
Key: 1.98

Exercise: Which protein stability index is reported for this variant? G5A
Key: 1.99

Exercise: I'd like to know its protein stability index. The variant in question is G5P
Key: 2.02
